tested on: MCF-7 (breast cancer cell line); assay: Antiproliferative assay (MTT), MCF-7; assay type: cell-based; conditions: Homo sapiens, MCF7; read-out: Antiproliferative Activity IC50 ± SEM (µM) MCF-7
READOUT: IC50 (µM)

Would you please look over these solved cases?
{"columns": ["COMPOUND", "IC50, µM"],
 "data": [
  ["O=C(COc1ccc(C2=NNC(c3ccc(Cl)cc3)C2)cc1)Nc1ccc(C2=NNC(c3ccc(Br)cc3)C2)cc1 (stereo not shown)", 2.9],
  ["COc1ccc(C2CC(c3ccc(NC(=O)COc4ccc(C5=NNC(c6ccc(OC)c(OC)c6)C5)cc4)cc3)=NN2)cc1 (stereo not shown)", 1]
]}

(P) COc1ccc(C2CC(c3ccc(OCC(=O)Nc4ccc(C5=NNC(c6ccc(Cl)cc6)C5)cc4)cc3)=NN2)cc1 (stereo not shown)
(Q) O=C(COc1ccc(C2=NNC(c3ccc(Cl)cc3)C2)cc1)Nc1ccc(C2=NNC(c3ccc(Cl)cc3)C2)cc1 (stereo not shown)
Which has the higher IC50, P or Q ? Response format: the label of the selected entry.
Q
(Q: 2.7 µM, P: 1.2 µM)
